Attribute: self-cleavage kobs at 40 uM GlcN6P
B1: glmS ribozyme (parent)
chain: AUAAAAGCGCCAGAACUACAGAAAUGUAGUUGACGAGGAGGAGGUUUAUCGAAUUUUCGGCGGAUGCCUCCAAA

Variants of: B1
PROTOCOL SUMMARY: self-cleavage kobs at 40 uM GlcN6P; higher = faster cleavage; RNA array
CONDITION LABEL: with glucosamine-6-phosphate
This sample holds only a part of the variants without activity.
ASSAY ENDPOINT: self-cleavage kobs at 40 uM GlcN6P

- G35A G59C: < 1e-05 s⁻¹
- C16U A33U C50G A64U U69A: 0.000139 s⁻¹
- U31C G60U: < 1e-05 s⁻¹
- U55G U57G: < 1e-05 s⁻¹
- G13A: 1.56e-05 s⁻¹
- A15U C16G: 2.88e-05 s⁻¹
- A12U G40U U45G: 0.000216 s⁻¹
- G35C U56C: < 1e-05 s⁻¹
- C11U C50G: 0.000107 s⁻¹
- C10G G43U U65A: < 1e-05 s⁻¹
- U56G G62C: < 1e-05 s⁻¹
- A15U G43U U54C G60C C70G: < 1e-05 s⁻¹
- G7C G59C: < 1e-05 s⁻¹
- G44U C71U: < 1e-05 s⁻¹
- G29U A53G C67G: 5.1e-05 s⁻¹
- U45C C50U: < 1e-05 s⁻¹
- A15U C16G C58U G59U: < 1e-05 s⁻¹
- G7C G38U: < 1e-05 s⁻¹
- A15C A39G: 0.000398 s⁻¹
- G13A A36G: < 1e-05 s⁻¹
- C10A U31A C58G C67A: 4.23e-05 s⁻¹
- G32C G35A G51U: < 1e-05 s⁻¹
- C11A A12C G32U C50G: 0.000123 s⁻¹
- G35U G60A: < 1e-05 s⁻¹
- C8A A48C G59U: < 1e-05 s⁻¹
- A14C G35U C70U: < 1e-05 s⁻¹
- A14C A53U U69C: 5.39e-05 s⁻¹
- G32A A42U C70A: < 1e-05 s⁻¹
- A6U G32A: < 1e-05 s⁻¹
- G7A A12C A42C U49A G60C: < 1e-05 s⁻¹
- A14G C34U C50G C68G: 7.72e-05 s⁻¹
- U47G A64G C70G: < 1e-05 s⁻¹
- A12G G32C G37U C71G: < 1e-05 s⁻¹
- G9C G51A A52U C70G: < 1e-05 s⁻¹
- G7U U46C C70G: < 1e-05 s⁻¹
- G59C: < 1e-05 s⁻¹
- G13A G60U A64C: < 1e-05 s⁻¹
- A12G A33G U57G: < 1e-05 s⁻¹
- A6G A48U G66U U69C: < 1e-05 s⁻¹
- U30A A36G: < 1e-05 s⁻¹
- G35C A39C U49A A53U: < 1e-05 s⁻¹
- A33G C50A A53C G60C: < 1e-05 s⁻¹
- A12U U30C C68A: < 1e-05 s⁻¹
- A15G C50G C70U: 5.62e-05 s⁻¹
